Experiment: Kinetic assay of purified DAOCS with penicillin N as main substrate
Type: biochemical
Settings: for penicillin N; 0.5 μg purified DAOCS, 30° C., 10 minutes
quantity-name: kcat (S^−1)
One number for each entry, in S^−1.

Request: Can you share its kcat? I mean this molecule: YS115: mutated penicillin expandase (DAOCS) with substitution M73T (protein, UniProt P18548 1-311, looked up, variant M73T) Deacetoxycephalosporin C …: MDTTVPTFSLAELQQGLHQDEFRRCLRDKGLFYLTDCGLTDTELKSAKDLVIDFFEHGSEAEKRAVTSPVPTTRRGFTGLESESTAQITNTGSYSDYSMCYSMGTADNLFPSGDFERIWTQYFDRQYTASRAVAREVLRATGTEPDGGVEAFLDCEPLLRFRYFPQVPEHRSAEEQPLRMAPHYDLSMVTLIQQTPCANGFVSLQAEVGGAFTDLPYRPDAVLVFCGAIATLVTGGQVKAPRHHVAAPRRDQIAGSSRTSSVFFLRPNADFTFSVPLARECGFDVSLDGETATFQDWIGGNYVNIRRTSKA
Result: 0.239
